Numbers sourced from the supplement of paper PMC10201428.

test system: VchCAST RNA-guided transposition machinery (E. coli BL21(DE3) host, lacZ target); assay: relative integration efficiency (T-LR orientation) vs wild-type transposon end (log2 (normalized fold change)); transposon end mutated: left end; higher = more efficient transposition
relative integration efficiency (log2) values, listed per item

Here is how some sequences turned out for relative integration efficiency (log2).
>  <polymer-sequence>
AATGTTGTTGATGCAACCATAAAGTGATATTTAATAATTATTTATAATCAGCAACTGCCAACACCCCACCAACGCGCGGTCGCGAGACACCCCACCAACGCCTGGTCGCGGGGGTGTCCGATCTGATTTCAGCAAAACTACTGCAGTAAGAA

>  <relative integration efficiency (log2)>
-3.03

$$$$
>  <polymer-sequence>
AATGTTGTTGATGCAACCATAAAGTGATATTTAATAATGGAATTGTGAGCGGATAACAATTACAAAACAACCATATATTGATATCTCACAAAACAACCATAAGTTGATATTTTTGTGAATCGAGTATTTCAGCAAAACTACTGCAGTAAGAA

>  <relative integration efficiency (log2)>
-3.41

$$$$
>  <polymer-sequence>
AATGTTGTTGATGCAACCATAAAGTGATATTTACCGACTGTCTGCCATCAGCCGCTTAACCGCAGCCCAACCATATATTGATATCTCACAAAACAACCATAAGTTGATATTTTTGTGAATCGAGTATTTCAGCAAAACTACTGCAGTAAGAA

>  <relative integration efficiency (log2)>
-3.56

$$$$
>  <polymer-sequence>
AATGTTGTTGATGCAACCATAAAGTGATATTTAATAATTATTTATAATCAGCAACTTAACCACAAAATGTGAATCGAGTATTTCAGCAAAACTACTGCAGTAAGAATCAACCATATATTGATATCTCACAAAACAACCATAAGTTGATATTT

>  <relative integration efficiency (log2)>
-5.03

$$$$
>  <polymer-sequence>
AATGTTGTTGATGCAACCATAAAGTGATATTTACGCCGGCGGGCGCCGACTACCAGGCCAACACCCCACCAACGCGCGGTCGCGAGACACCCCACCAACGCCTGGTCGCGGGGGTGTCCGATCTGATTTCAGCAAAACTACTGCAGTAAGAA

>  <relative integration efficiency (log2)>
-6.15

$$$$

*Q* # query: relative integration efficiency (log2) of entry AATGTTGTTGATGCAACCATAAAGTGATATTTAATAATTATTTATAATCAGCAACTTAACCACAAAACAACCATATATTGATAGAGACACCCCACCAACGCCTGGTCGCGGGGGTGTCCGATCTGATTTCAGCAAAACTACTGCAGTAAGAA
*A* -1.28

*Q* What does the record list as relative integration efficiency (log2) for AATGTTGTTGATGCAACCATAAAGTGATATTTAATAATTATTTATAATCAGCAACTTAACCACAAAACAACCATAGCGGTCGCGAGACACCCCACCAACGCCTGGTCGCGGGGGTGTCCGATCTGATTTCAGCAAAACTACTGCAGTAAGAA ?
*A* -4.33

*Q* Quick one: relative integration efficiency (log2) for AATGTTGTTGATGCAACCATAAAGTGATATTTAATAATTATTTATAATCAGCAACTTAACCACAAAACAACCATATATTGATATCTCACAAAACAACCATAAGTTGATATGGGGTGTCCGATCTGATTTCAGCAAAACTACTGCAGTAAGAA ?
*A* -0.611

*Q* What value of relative integration efficiency (log2) has been recorded for this entry: AATGTTGTTGAAACAACCATAAAGTGATAACAACGAATCAATTAAAATCATAGGCTTAATCGAAAAACAACCATATCTTGATATCGCATAAAACAACCATAAGTTGATATTTTGGTGAAACGAGTATTTCAGCAAAACTACTGCAGTAAGAA
*A* -0.44
